Assay System: T1, hPRLR.mFc (soluble dimeric human PRLR) (human)
T1 construct: dimeric PRLR construct
T1 chain: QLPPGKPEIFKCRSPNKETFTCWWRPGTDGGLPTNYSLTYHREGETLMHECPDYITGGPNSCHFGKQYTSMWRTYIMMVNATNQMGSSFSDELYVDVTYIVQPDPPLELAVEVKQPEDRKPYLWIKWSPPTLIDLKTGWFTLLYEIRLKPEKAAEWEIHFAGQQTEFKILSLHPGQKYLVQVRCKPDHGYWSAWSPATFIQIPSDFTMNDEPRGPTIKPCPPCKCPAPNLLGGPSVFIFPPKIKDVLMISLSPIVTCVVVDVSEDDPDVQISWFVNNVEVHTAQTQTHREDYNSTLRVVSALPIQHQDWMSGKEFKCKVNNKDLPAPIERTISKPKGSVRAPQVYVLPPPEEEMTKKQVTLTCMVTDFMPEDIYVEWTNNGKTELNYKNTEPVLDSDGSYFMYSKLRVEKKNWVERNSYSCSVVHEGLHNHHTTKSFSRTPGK
Test Description: SPR Biacore, 25 C, mAb capture
Measured Parameter: T½
Write the figure, then the unit, nothing else.

H1H6960N (antibody, human IgG1, V domains shown, Tested with human IgG1 Fc (H1H); also called H2M6960N) VH: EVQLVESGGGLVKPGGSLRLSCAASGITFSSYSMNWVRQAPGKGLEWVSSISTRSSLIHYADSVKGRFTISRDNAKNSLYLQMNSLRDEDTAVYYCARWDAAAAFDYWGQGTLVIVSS VL: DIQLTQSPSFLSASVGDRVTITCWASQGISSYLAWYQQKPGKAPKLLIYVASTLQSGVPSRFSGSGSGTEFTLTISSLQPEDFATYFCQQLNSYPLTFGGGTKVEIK; 5.41 h
H1H6801P (antibody, human IgG1, V domains shown, Human IgG1 Fc (H1H)) VH: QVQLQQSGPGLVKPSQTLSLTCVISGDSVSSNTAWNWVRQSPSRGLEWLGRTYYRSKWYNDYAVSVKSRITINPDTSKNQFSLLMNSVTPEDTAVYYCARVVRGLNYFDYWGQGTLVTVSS VL: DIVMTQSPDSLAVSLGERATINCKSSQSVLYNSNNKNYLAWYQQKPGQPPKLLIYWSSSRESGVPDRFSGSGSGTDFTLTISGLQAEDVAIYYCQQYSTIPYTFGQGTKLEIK; 1.77 h

Next up:
Challenge: # return recorded T½ for entry H1H6803P (antibody, human IgG1, V domains shown, Human IgG1 Fc (H1H)) VH: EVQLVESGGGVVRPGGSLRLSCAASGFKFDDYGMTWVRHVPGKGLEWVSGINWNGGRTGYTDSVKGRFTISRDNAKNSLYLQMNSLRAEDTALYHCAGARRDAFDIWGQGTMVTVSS VL: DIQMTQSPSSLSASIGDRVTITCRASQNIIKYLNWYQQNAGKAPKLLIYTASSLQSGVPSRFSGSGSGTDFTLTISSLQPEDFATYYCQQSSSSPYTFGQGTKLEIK
Response given: 3.07 h
